System: human breast adenocarcinoma cells of MCF-7 line
Assay: MTT cell viability assay, MCF-7
Type: cell-based
Settings: Homo sapiens, MCF7, 72 h
pIC50: −log10 of the molar value.
Returns 1 if the recorded pIC50 is greater than or equal to 5, and -1 otherwise.

Molecule	Category
CC1(C)C2=C(Sc3[nH]c(=O)sc31)C(=O)c1ccccc1C2=O	-1
COc1cccc2c1C(=O)c1c(O)c3c(c(O)c1C2=O)C[C@@](O)(C(=O)CO)C[C@@H]3O[C@H]1C[C@H](N)[C@H](O)[C@H](C)O1 [Doxorubicin, doxorubicin, reference compound]	1
O=C1C2=C(C(=O)c3ccccc31)C1(CCCC1)c1sc(=O)[nH]c1S2	-1
